Item-by-item account of melting point
MEASURED_PROPERTY: melting point

In [3]: df
Out[3]:
                                query_smiles         result
 0                       N#CSCc1c(Cl)cccc1Cl    39 to 42 °C
 1                 Oc1ccnc2ccc(C(F)(F)F)cc12  265 to 268 °C
 2                           Brc1nc2ccccc2s1    40 to 42 °C
 3                        O=S(=O)(Cl)c1ccsc1    44 to 45 °C
 4       O=Cc1ccc(-c2cccc([N+](=O)[O-])c2)o1  156 to 158 °C
 5                                Nc1cccnc1N  114 to 116 °C
 6       O=S(=O)(c1ccccc1)n1c(CBr)cc2ccccc21  116 to 117 °C
 7                 N#CC1(c2ccc(F)cc2Cl)CCCC1    49 to 52 °C
 8  O=C1CC[C@@H](COC(c2ccccc2)(c2ccccc2)c2ccccc2)O1  148 to 152 °C
 9            O=Cc1c(Sc2ccc(Cl)cc2)nc2sccn12  139 to 141 °C
10      Cc1cc2ncc(S(=O)(=O)C(C)(C)C)c(N)n2n1  206 to 208 °C

---

MEASURED_PROPERTY: melting point

>>> df
                                    compound  measured_property         result
 0  Cc1ccc(S(=O)(=O)OC2CCC3(C)C(CCC4C5CC(=O)CC5(C)CCC43)C2)cc1 (stereo not drawn)      melting point  165 to 166 °C
 1                   COc1cc(N=C=S)c(OC)cc1Cl      melting point    84 to 86 °C
 2  COC(=O)C1=C(N)Oc2cc(C)[nH]c(=O)c2C1c1ccccc1 (stereo not drawn)      melting point  230 to 232 °C
 3                   Nc1ccccc1C(=NO)c1ccccc1      melting point  157 to 158 °C
 4                       Cn1ncc(C(=O)Cl)c1Cl      melting point    50 to 52 °C
 5                   FC(F)(F)c1ccc(N=C=S)cc1      melting point    41 to 43 °C
 6           COC(=O)/C(=C/c1ccccc1)Cc1ccccc1      melting point    27 to 28 °C
 7                        O=C(O)c1cc(O)ccc1O      melting point  204 to 207 °C
 8                    c1cc2c(nn1)CCc1nonc1-2      melting point  108 to 110 °C
 9  CC12CCC(/C(=C/N(O)c3ccccc3)C1=O)C2(C)C (stereo not drawn)      melting point  106 to 107 °C
10  O=Cc1ccc(-c2cc(C(F)(F)F)cc(C(F)(F)F)c2)o1      melting point  109 to 110 °C
11                O=C(Cc1ccccc1)c1ccc(O)cc1O      melting point  112 to 117 °C
12  CC(C)(C)OC(=O)N[C@@H](CSCc1ccccc1)C(=O)O      melting point    85 to 88 °C
13  CC1OC(=O)C2CC3CCCCC3C(C=CC3CCCC(C)N3C)C12 (single isomer, unassigned; (+))      melting point  130 to 136 °C
14     O=c1nc(SCc2ccc(Cl)cc2)c2c([nH]1)CCCC2      melting point  287 to 289 °C
15                          S=C1NCCc2ccccc21      melting point    97 to 99 °C
16                        CC(C=Cc1ccccc1)=NO      melting point  116 to 120 °C
17         CN(C)C=C(C=O)c1ccccc1[N+](=O)[O-]      melting point  119 to 120 °C
